# System: RPMI-8226 leukemia
Valid outcomes are listed here; reply with one: y = active, n = inactive

Data request: Which outcome was entered for the compound `O=C(c1ccccc1)c1c(C(F)(F)F)n([O-])c2ccc(F)cc2[n+]1=O` in this test?
Data returned: n

Data request: Kindly provide the recorded test outcome for the following compound: COc1ccc([As]=[As]c2ccc(OC)c(NCS(=O)(=O)O)c2)cc1NCS(=O)(=O)O (centres undefined)
Data returned: n

Data request: Give the logged outcome of this assay for the following compound: `C/C(=N\NC(=O)c1ccc(C(C)(C)C)cc1)c1ccc(O)cc1O`
Data returned: n

Data request: // param item: `Cc1nc2ccc(Nc3nc(Cl)nc(Nc4ccc(F)cc4)n3)cc2n1Cc1ccccc1` ; yields the recorded call
Data returned: n

Data request: Give the logged outcome of this assay for the following compound: `COc1cc(/C=C2\CN(S(=O)(=O)c3ccc(C)cc3)C/C(=C\c3cc(CN4CCOCC4)c(O)c(OC)c3)C2=O)cc(CN2CCOCC2)c1O`
Data returned: n

Data request: Look up the recorded call for CC(C)Cc1ccc(C(C)C(=O)NCc2ccc(Cn3c(=O)sn(CCCCl)c3=O)cc2)cc1 (centres undefined) in this test.
Data returned: y

Data request: Kindly provide the recorded test outcome for the following compound: `O=C(Cc1csc2nc(-c3ccc(Br)cc3)cn12)N/N=C/c1ccccc1`
Data returned: n

Data request: Each compound tested received a call. Report the one for `COc1cc(C(=O)N2CCN(c3ccccn3)CC2)c(N)cc1OCc1ccccc1` .
Data returned: n

Data request: Given `CS(=O)(=O)c1ccc(Oc2cc(F)cc(C#N)c2)c2c1[C@H](O)[C@H](F)[C@H]2F` , state the outcome it received in this test.
Data returned: n
